# assay.info: Cytotoxicity by MTS staining in PBMCs
# Format: cell-based
# measurement.setup: human, peripheral blood mononuclear cells (PBMC), MTS staining, read-out: TC50
Measured CC50 at 7 days by item

molecule	CC50 at 7 days
Cc1cc(C#N)cc(C)c1Oc1nc(Nc2ccc(C#N)cc2)nc(N)c1Br [TMC-125, Etravirine, reference compound]	> 1 µM
CC1=C(c2nc(-c3ccc(C#N)cc3)cs2)C(c2ccc(O)cc2)NC(=O)N1 (stereo not shown)	≥ 100 µM
CC1=C(c2nc(-c3ccc(C#N)cc3)cs2)C(c2cccc(C(F)(F)F)c2)NC(=O)N1 (stereo not shown)	≥ 100 µM
CC1=C(c2nc(-c3cccc(C#N)c3)cs2)C(c2cccc(O)c2)NC(=O)N1C (stereo not shown)	50 to 100 µM

The molecule identified as c1cc(CN2CCCNCCNCCCNCC2)ccc1CN1CCCNCCNCCCNCC1 [AMD 3100, reference compound] registered its CC50 at 7 days at > 10 µM

The molecule identified as CC1=C(c2nc(-c3ccc(C#N)cc3)cs2)C(c2ccnc3ccccc23)NC(=O)N1 (stereo not shown) registered its CC50 at 7 days at ≥ 100 µM

The molecule identified as CC1=C(c2nc(-c3ccc(C#N)cc3C)cs2)C(c2cc3ccccc3n2C)NC(=O)N1 (stereo not shown) registered its CC50 at 7 days at ≥ 100 µM

The molecule identified as CC1=C(c2nc(-c3ccc(C#N)cc3)cs2)C(c2ccc(Br)nc2)NC(=O)N1 (stereo not shown) registered its CC50 at 7 days at ≥ 100 µM

The molecule identified as CC1=C(c2nc(-c3ccc(C#N)cc3)cs2)C(c2cccc(O)c2)NC(=O)N1 (stereo not shown) [Example 34] registered its CC50 at 7 days at 50 to 100 µM

The molecule identified as CC1=C(c2nc(-c3ccc(C#N)cc3)cs2)C(c2ccc(Oc3ccccc3)cc2)NC(=O)N1 (stereo not shown) registered its CC50 at 7 days at ≥ 100 µM

The molecule identified as CC1=C(c2nc(-c3ccc(C#N)cc3)cs2)C(c2cnc3ccccc3n2)NC(=O)N1 (stereo not shown) registered its CC50 at 7 days at ≥ 100 µM

The molecule identified as CC(C)(C)NC(=O)[C@@H]1CN(Cc2cccnc2)CCN1C[C@@H](O)C[C@@H](Cc1ccccc1)C(=O)N[C@H]1c2ccccc2C[C@H]1O [Indinavir, reference compound] registered its CC50 at 7 days at > 1 µM

The molecule identified as CC1=C(c2nc(-c3ccc(C#N)cc3)cs2)C(c2ccc(OCc3ccccc3)c(Cl)c2)NC(=O)N1 (stereo not shown) registered its CC50 at 7 days at ≥ 100 µM

The molecule identified as CC1=C(c2nc(-c3ccc(C#N)cc3)cs2)C(c2ccc(Cl)nc2)NC(=O)N1 (stereo not shown) registered its CC50 at 7 days at ≥ 100 µM

The molecule identified as CC1=C(c2nc(-c3ccc(F)cc3)cs2)C(Cc2ccccc2)NC(=O)N1 (stereo not shown) registered its CC50 at 7 days at ≥ 100 µM

The molecule identified as COc1ccc(-c2csc(C3=C(C)NC(=O)NC3c3cc(Br)cs3)n2)cc1 (stereo not shown) registered its CC50 at 7 days at ≥ 100 µM
